Tested on: K562
EXPERIMENT DESCRIPTION: Antiproliferative activity against human K562 cells assessed as cell viability after 72 hrs by CellTitre-Glo luminescent assay
Type: functional, cell-based
CONDITION NOTES: Homo sapiens, K562, 72 h
// reported pIC50 per item
Scale: negative log10 of molar concentration, which is what pIC50 denotes.

Consider the worked cases shown below.
COMPOUND	TEST TARGET	VALUE MEASURED
CCOC(=O)N1CCCC2(CC1)CC(=O)c1cc(/C=C/C(=O)NO)ccc1O2 (racemic)	K562	5.78
CC(=O)N1CC2(CC(=O)c3cc(/C=C/C(=O)NO)ccc3O2)C1	K562	4.82

q: What does the record list as pIC50 for O=C(/C=C/c1ccc2c(c1)C(=O)CC1(CCCN(Cc3ccccc3)CC1)O2)NO (racemic) ?
a: 6.79

q: Could you share which pIC50 value was measured for O=C(/C=C/c1ccc2c(c1)C(=O)CC1(CCCN(Cc3ccccc3)C1)O2)NO (racemic) ?
a: 6.37

q: Please give the measured pIC50 for this compound: CN1CCCC2(CC1)CC(=O)c1cc(/C=C/C(=O)NO)ccc1O2 (racemic)
a: 6.48

* * *

# inhibition at 0.5 h, 10 µM annotations
TEST TARGET: CYP3A4 (Homo sapiens)
Sequence (P08684 whole entry): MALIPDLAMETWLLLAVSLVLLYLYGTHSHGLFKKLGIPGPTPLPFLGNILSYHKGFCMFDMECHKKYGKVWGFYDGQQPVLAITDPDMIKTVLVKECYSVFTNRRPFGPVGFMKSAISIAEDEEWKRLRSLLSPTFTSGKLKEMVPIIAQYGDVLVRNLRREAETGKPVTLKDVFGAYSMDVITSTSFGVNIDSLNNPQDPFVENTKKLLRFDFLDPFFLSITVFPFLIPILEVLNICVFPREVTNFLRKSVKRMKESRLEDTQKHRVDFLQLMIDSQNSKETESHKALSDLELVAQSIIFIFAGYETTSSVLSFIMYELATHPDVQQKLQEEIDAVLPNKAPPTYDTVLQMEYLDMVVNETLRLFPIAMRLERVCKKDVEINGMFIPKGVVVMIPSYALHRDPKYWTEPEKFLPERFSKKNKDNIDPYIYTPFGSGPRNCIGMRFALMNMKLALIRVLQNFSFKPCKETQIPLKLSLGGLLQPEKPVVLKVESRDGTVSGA
EXPERIMENT DESCRIPTION: Inhibition of human CYP3A4 using 7-benzyloxy-4-(trifluoromethyl)-coumarin as substrate at 10 uM after 30 mins by fluorimetric analysis
Format: ADME
CONDITION NOTES: probe 7-benzyloxy-4-(trifluoromethyl)-coumarin
Your answer should be a plain number; it is taken to be in %.

Sample records with inhibition at 0.5 h, 10 µM:
COMPOUND	TEST TARGET	inhibition at 0.5 h, 10 µM, %
O=C(/C=C/c1ccc2c(c1)C(=O)CC1(CCCN(CCc3ccccc3)CC1)O2)NO (racemic)	CYP3A4 (Homo sapiens)	41
O=C(CCCCCCC(=O)Nc1ccccc1)NO	CYP3A4 (Homo sapiens)	35
Cn1cc(CN2CC3(CC(=O)c4cc(/C=C/C(=O)NO)ccc4O3)C2)c2ccccc21	CYP3A4 (Homo sapiens)	84
O=C(/C=C/c1ccc2c(c1)C(=O)CC1(CCN(CCc3ccccc3)C1)O2)NO (racemic)	CYP3A4 (Homo sapiens)	64
O=C(/C=C/c1ccc2c(c1)C(=O)CC1(CCN(Cc3ccccc3)C1)O2)NO (racemic)	CYP3A4 (Homo sapiens)	69

q: Which inhibition at 0.5 h, 10 µM is reported for this compound? CN1CCCC2(CC1)CC(=O)c1cc(/C=C/C(=O)NO)ccc1O2 (racemic)
a: 12

q: Given the compound CN1CCCC2(CC(=O)c3cc(/C=C/C(=O)NO)ccc3O2)C1 (racemic) , what is its reported inhibition at 0.5 h, 10 µM?
a: 51

q: Suppose we examine the compound O=C(/C=C/c1ccc2c(c1)C(=O)CC1(CCN(Cc3ccc(F)cc3)CC1)O2)NO ; what inhibition at 0.5 h, 10 µM value has been reported?
a: 34

q: Quick check: inhibition at 0.5 h, 10 µM of O=C(/C=C/c1ccc2c(c1)C(=O)CC1(CCN(CCc3ccccc3)CC1)O2)NO ?
a: 40

q: What value of measured inhibition at 0.5 h, 10 µM is listed for O=C(/C=C/c1ccc2c(c1)C(=O)CC1(CN(Cc3ccccc3)C1)O2)NO ?
a: 53

* * *

TEST TARGET: Histone deacetylase
EXPERIMENT DESCRIPTION: Inhibition of HDAC in human HeLa cells nuclear extract using Fluor de lys as substrate after 15 mins by fluorometric analysis
Assay type: cell-based
PARAMETER MEASURED: IC50 (nM)
// note: answer is a bare numeric in nM

MOLECULE	IC50, nM
O=C(/C=C/c1ccc2c(c1)C(=O)CC1(CCN(CCc3ccccc3)C1)O2)NO (racemic)	27
CN1CC2(CC(=O)c3cc(/C=C/C(=O)NO)ccc3O2)C1	168
O=C(/C=C/c1ccc2c(c1)C(=O)CC1(CN(CCc3ccccc3)C1)O2)NO	219
O=C(/C=C/c1ccc2c(c1)C(=O)CC1(CCCNCC1)O2)NO (racemic)	134

Query molecule follows.
q: Tell me the measured IC50 of O=C(/C=C/c1ccc2c(c1)C(=O)CC1(CCCN(C(=O)c3ccccc3)CC1)O2)NO (racemic) , please.
a: 110

* * *

TEST TARGET: CYP1A2 (Homo sapiens, UniProt P05177)
Sequence (P05177 whole entry): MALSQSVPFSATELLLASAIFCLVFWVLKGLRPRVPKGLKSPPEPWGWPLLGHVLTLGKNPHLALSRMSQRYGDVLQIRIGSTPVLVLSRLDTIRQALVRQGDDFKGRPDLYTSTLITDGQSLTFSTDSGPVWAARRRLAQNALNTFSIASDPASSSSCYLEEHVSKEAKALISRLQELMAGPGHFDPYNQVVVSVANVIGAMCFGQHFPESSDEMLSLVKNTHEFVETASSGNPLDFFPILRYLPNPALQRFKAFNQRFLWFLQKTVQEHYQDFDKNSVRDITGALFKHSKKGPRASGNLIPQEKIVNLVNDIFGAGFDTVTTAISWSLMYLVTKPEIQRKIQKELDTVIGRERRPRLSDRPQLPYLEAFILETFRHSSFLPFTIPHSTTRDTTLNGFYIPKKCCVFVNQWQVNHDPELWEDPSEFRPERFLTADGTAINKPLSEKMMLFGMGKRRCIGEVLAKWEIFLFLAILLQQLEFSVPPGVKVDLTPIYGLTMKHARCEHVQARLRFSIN
EXPERIMENT DESCRIPTION: Inhibition of human CYP1A2 using 3-cyano-7-ethoxycoumarin as substrate at 10 uM after 15 mins by fluorimetric analysis
Format: ADME
CONDITION NOTES: probe 3-cyano-7-ethoxycoumarin
# inhibition at 0.25 h, 10 µM per record follows
Just the number in %, nothing appended.

MOLECULE	PARAMETER MEASURED	VALUE MEASURED
O=C(/C=C/c1ccc2c(c1)C(=O)CC1(CCCN(CCc3ccccc3)CC1)O2)NO (racemic)	inhibition at 0.25 h, 10 µM	5
CN1CCCC2(CC1)CC(=O)c1cc(/C=C/C(=O)NO)ccc1O2 (racemic)	inhibition at 0.25 h, 10 µM	5
CN1CCCC2(CC(=O)c3cc(/C=C/C(=O)NO)ccc3O2)C1 (racemic)	inhibition at 0.25 h, 10 µM	5
O=C(/C=C/c1ccc2c(c1)C(=O)CC1(CN(Cc3ccccc3)C1)O2)NO	inhibition at 0.25 h, 10 µM	5

q: Entry under review: O=C(/C=C/c1ccc2c(c1)C(=O)CC1(CCN(Cc3ccccc3)C1)O2)NO (racemic) . Reported inhibition at 0.25 h, 10 µM?
a: 5

q: What value of inhibition at 0.25 h, 10 µM has been recorded for this entry: O=C(/C=C/c1ccc2c(c1)C(=O)CC1(CCN(CCc3ccccc3)C1)O2)NO (racemic)
a: 5

* * *

Measured remaining at 0.5 h, 1 µM, listed per entry.
EXPERIMENT DESCRIPTION: Metabolic stability in human liver microsomes assessed as compound remaining at 1 uM preincubated for 10 mins measured after 30 mins by LC-MS/MS analysis
Type: ADME
CONDITION NOTES: liver microsomes, read-out: Stability
Express it in %; write the number only.

MOLECULE	VALUE UNIT	remaining at 0.5 h, 1 µM
Cn1cc(CN2CC3(CC(=O)c4cc(/C=C/C(=O)NO)ccc4O3)C2)c2ccccc21	%	51
O=C(/C=C/c1ccc2c(c1)C(=O)CC1(CCCN(CCc3ccccc3)CC1)O2)NO (racemic)	%	27

q: I am curious: what remaining at 0.5 h, 1 µM value has been reported for O=C(CCCCCCC(=O)Nc1ccccc1)NO ?
a: 93

* * *

TEST TARGET: CYP2C19 (Homo sapiens, UniProt P33261)
Sequence (P33261 whole entry): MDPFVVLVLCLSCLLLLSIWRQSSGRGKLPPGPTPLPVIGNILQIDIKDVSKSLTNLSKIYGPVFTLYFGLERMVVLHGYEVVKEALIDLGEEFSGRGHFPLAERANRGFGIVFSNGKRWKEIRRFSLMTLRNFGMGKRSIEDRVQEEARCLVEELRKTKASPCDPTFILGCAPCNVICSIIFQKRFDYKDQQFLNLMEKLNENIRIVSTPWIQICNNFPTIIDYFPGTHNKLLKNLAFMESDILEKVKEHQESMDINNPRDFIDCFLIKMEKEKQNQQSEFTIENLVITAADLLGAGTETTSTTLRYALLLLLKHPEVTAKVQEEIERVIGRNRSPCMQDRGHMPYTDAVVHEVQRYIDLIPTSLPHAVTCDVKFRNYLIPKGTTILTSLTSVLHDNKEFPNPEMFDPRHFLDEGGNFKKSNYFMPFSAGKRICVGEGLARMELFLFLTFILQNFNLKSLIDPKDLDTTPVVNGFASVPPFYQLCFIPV
EXPERIMENT DESCRIPTION: Inhibition of human CYP2C19 using 3-cyano-7-ethoxycoumarin as substrate at 10 uM after 30 mins by fluorimetric analysis
Format: ADME
CONDITION NOTES: probe 3-cyano-7-ethoxycoumarin
PARAMETER MEASURED: inhibition at 0.5 h, 10 µM (%)
Just the number please, in %, no unit attached.

Some molecules with recorded inhibition at 0.5 h, 10 µM:
MOLECULE	inhibition at 0.5 h, 10 µM / %
Cn1cc(CN2CC3(CC(=O)c4cc(/C=C/C(=O)NO)ccc4O3)C2)c2ccccc21	68
O=C(CCCCCCC(=O)Nc1ccccc1)NO [VORINOSTAT]	69

Kindly review the next molecule as well.
q: Form field: inhibition at 0.5 h, 10 µM recorded for O=C(/C=C/c1ccc2c(c1)C(=O)CC1(CCN(CCc3ccccc3)C1)O2)NO (racemic) with CYP2C19 (Homo sapiens, UniProt P33261) (enter value)
a: 59

* * *

Test system: K562
EXPERIMENT DESCRIPTION: Antiproliferative activity against human K562 cells assessed as cell viability after 72 hrs by CellTitre-Glo luminescent assay
Format: functional, cell-based
CONDITION NOTES: Homo sapiens, K562, 72 h
pIC50: −log10 of the molar value.
Classify as follows. Reported pIC50 greater than or equal to 6: Satisfied. Reported pIC50 below: Not satisfied.

Examples with answers:
COMPOUND	DISCRETE LABEL
O=C(/C=C/c1ccc2c(c1)C(=O)CC1(CCCN(CCc3ccccc3)C1)O2)NO (racemic)	Satisfied
Cn1cc(CN2CC3(CC(=O)c4cc(/C=C/C(=O)NO)ccc4O3)C2)c2ccccc21	Satisfied
CN1CCC2(CC(=O)c3cc(/C=C/C(=O)NO)ccc3O2)C1 (racemic)	Satisfied
CC(=O)N1CCC2(CC(=O)c3cc(/C=C/C(=O)NO)ccc3O2)C1 (racemic)	Not satisfied
O=C(/C=C/c1ccc2c(c1)C(=O)CC1(CCCN(Cc3ccc(F)cc3)CC1)O2)NO (racemic)	Satisfied
O=C(/C=C/c1ccc2c(c1)C(=O)CC1(CN(CCc3ccccc3)C1)O2)NO	Satisfied
O=C(/C=C/c1ccc2c(c1)C(=O)CC1(CCCN(C(=O)c3ccccc3)C1)O2)NO (racemic)	Not satisfied
CN1CC2(CC(=O)c3cc(/C=C/C(=O)NO)ccc3O2)C1	Satisfied
Cn1cc(CN2CCCC3(CC(=O)c4cc(/C=C/C(=O)NO)ccc4O3)C2)c2ccccc21 (racemic)	Satisfied
O=C(/C=C/c1ccc2c(c1)C(=O)CC1(CCCNCC1)O2)NO (racemic)	Not satisfied

q: Say whether O=C(/C=C/c1ccc2c(c1)C(=O)CC1(CN(C(=O)c3ccccc3)C1)O2)NO shows pIC50 of 6 or more.
a: Satisfied

q: Decide: is the reported value of pIC50 for O=C(/C=C/c1ccc2c(c1)C(=O)CC1(CCCN(CCc3ccccc3)CC1)O2)NO (racemic) equal to or greater than 6?
a: Satisfied

q: Form field: pIC50 at least 6? Entry: CC(=O)N1CCCC2(CC1)CC(=O)c1cc(/C=C/C(=O)NO)ccc1O2 (racemic)
a: Not satisfied
